Test system: HCT-15 colon
Test: NCI-60 one-dose screen, 48 h (100 = growth as untreated, 0 = no growth, -100 = all killed)
Conditions: 10 µM unless noted
Compounds without any hit were thinned out: in the full panel of roughly 83,000, 20% have a hit. Activity calls are given as the source filed them. The calls were made as follows: active = growth percent below 10; inactive = the rest.
propertyMeasured: growth

Entry COc1c(N2CC3CCCNC3C2)c(F)cc2c(=O)c(C(=O)N/N=C/c3ccc(F)cc3)cn(C3CC3)c12 (stereo not drawn) under HCT-15 colon had growth of 45.9% (inactive)

Assay HCT-15 colon, sample CC[C@]12C=CCN3CC[C@@]4(c5cc(NC(=O)COc6cc(O)c7c(=O)cc(-c8ccccc8)oc7c6)c(OC)cc5N(C)[C@H]4[C@@](O)(C(=O)OC)[C@@H]1OC(C)=O)[C@@H]32 , growth read: -69% (active)

Entry CN1CCN(Cc2ccc(NC(=O)c3cncc(C#Cc4cnn5cccnc45)c3)cc2C(F)(F)F)CC1 : growth on HCT-15 colon = 4.11% (active)

growth of COc1ccc(S(=O)(=O)NCCCNc2nccc(-c3cn(C(C)(C)C)nc3-c3ccc(Cl)c(OC)c3)n2)cc1 , assay on HCT-15 colon, is 78.5% (inactive)

The value of growth recorded for C=CCn1c(SCC(=O)Nc2ccc(C(=O)/C=C/c3ccc(Cl)cc3)cc2)nnc1-c1c[nH]c2ccccc12 when tested on HCT-15 colon reads 62.9% (inactive)

Record CCOc1ccc(NC2=C(Cl)C(=O)c3nc(C)ccc3C2=O)cc1 has HCT-15 colon growth equal to -83.2% (active)

Note to self: growth of O=C(Nc1cccc(Cl)c1)Nc1nc2ccc([N+](=O)[O-])cc2o1 with HCT-15 colon was 13.7% (inactive)

Entry NC(N)=Nc1ccc(Oc2cccc(Nc3ccc(Cl)c(C(F)(F)F)c3)c2)cn1 ; assay system HCT-15 colon; growth recorded at -63.5% (active)
